- system-name: catalytic domain of human gelatinase A (MMP-2) (Homo sapiens)
- Construct: enzyme activity of the catalytic domain of human gelatinase A (MMP-2)
- Sequence (P08253 110-465 limits assumed): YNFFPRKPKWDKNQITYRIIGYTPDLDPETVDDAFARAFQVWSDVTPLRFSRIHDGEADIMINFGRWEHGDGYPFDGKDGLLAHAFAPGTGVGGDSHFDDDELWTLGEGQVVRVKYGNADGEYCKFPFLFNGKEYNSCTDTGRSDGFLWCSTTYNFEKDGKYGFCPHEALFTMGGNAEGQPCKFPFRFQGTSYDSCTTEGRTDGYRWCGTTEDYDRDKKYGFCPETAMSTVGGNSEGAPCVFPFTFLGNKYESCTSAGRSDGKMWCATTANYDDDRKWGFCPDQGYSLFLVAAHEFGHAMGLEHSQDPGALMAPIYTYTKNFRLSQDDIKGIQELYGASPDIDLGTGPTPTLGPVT
- experiment-summary: Enzyme activity of the catalytic domain of human gelatinase A (MMP-2), fluorogenic substrate
- measurement-conditions: APMA-activated proenzyme, fluorescence 328/393 nm
endpoint-name: IC50
Answer format: number, then unit.

The cases that follow already have their IC50 on record.
compound: O=C(NO)C1C2CCCCC2CCN1S(=O)(=O)c1ccc(Oc2ccc(OC(F)(F)F)cc2)cc1 (stereo not drawn)
system-name: catalytic domain of human gelatinase A (MMP-2) (Homo sapiens)
endpoint-name: IC50
experimental-value: 2 nM
//
compound: O=C(NO)C1C2CCCCC2CCN1S(=O)(=O)CCc1ccc(-c2ccc(Cl)cc2)cc1 (stereo not drawn)
system-name: catalytic domain of human gelatinase A (MMP-2) (Homo sapiens)
endpoint-name: IC50
experimental-value: 4 nM

Now for another entry.
In: Give catalytic domain of human gelatinase A (MMP-2) (Homo sapiens) IC50 for O=C(NO)C1C2CCCCC2CCN1S(=O)(=O)c1ccc(Oc2ccc(OCC(F)(F)F)cc2)cc1 (stereo not drawn)
Out: 2.6 nM
